Each recorded value in this set is attributed to patent US20150246898A1.

system: Puccinia recondita tritici = Puccinia triticina (PUCCRT); test: Fungicidal activity vs. leaf rust on wheat plants (1-day protectant spray); assay type: in vivo; settings: wheat (variety Yuma) sprayed at 50 ppm, inoculated next day, disease severity evaluated 7-9 days later, read-out: Puccinia Rating (% Disease Control @ 50 ppm)

compound	pest or weed control at 50 ppm
OCC#Cc1ccc(C(F)(F)C(O)(c2cncnc2)c2ccc(F)cc2F)nc1 (racemic)	80 to 100%
OC(c1cncnc1)(c1ccc(F)cc1F)C(F)(F)c1ccc(OCC(F)(F)F)cn1 (racemic)	80 to 100%
N#Cc1ccc(COc2ccc(C(F)(F)C(O)(c3cncnc3)c3ccc(F)cc3F)nc2)c(F)c1 (racemic)	80 to 100%
CC(C)C(O)(c1cncnc1)C(F)(F)c1ccc(C#Cc2ccc(C#N)cc2)cn1 (racemic)	< 40%
OC(c1cncnc1)(c1ccc(F)cc1F)C(F)(F)c1ccc(OCc2ccc(Cl)cc2F)cn1 (racemic)	80 to 100%
OC(c1ccc(Cl)cc1)(c1cncnc1)C(F)(F)c1ccc(OCc2ccc(Cl)cc2)cn1 (stereo not shown)	< 40%
CC(C)C(O)(c1cncnc1)C(F)(F)c1ccc(C#Cc2cccc(C#N)c2)cn1 (racemic)	< 40%

* * *

test system: Puccinia recondita tritici = Puccinia triticina (PUCCRT); experiment: Fungicidal activity vs. leaf rust on wheat plants (1-day protectant spray); assay type: in vivo; conditions: wheat (variety Yuma) sprayed at 50 ppm, inoculated next day, disease severity evaluated 7-9 days later, read-out: Puccinia Rating (% Disease Control @ 50 ppm)
readoutKind: pest or weed control at 50 ppm

molecule	readoutKind	experimentalResult
N#Cc1ccc(C#Cc2ccc(C(F)(F)C(O)(c3cncnc3)c3ccc(F)cc3F)nc2)cc1 (racemic) [Example 5]	pest or weed control at 50 ppm	80 to 100%
N#Cc1ccc(C#Cc2ccc(C(F)(F)C(O)(c3cncnc3)c3ccc(F)cc3F)nc2)cc1F (racemic) [Example 11]	pest or weed control at 50 ppm	80 to 100%
OC(c1cncnc1)(c1ccc(F)cc1F)C(F)(F)c1ccc(C#Cc2ccc(Cl)cc2)cn1 (racemic) [Example 13]	pest or weed control at 50 ppm	80 to 100%
OC(c1cnccn1)(c1ccc(F)cc1F)C(F)(F)c1ccc(C#Cc2ccc(F)cc2)cn1 (racemic) [Example 25]	pest or weed control at 50 ppm	< 40%
N#Cc1cccc(C#Cc2ccc(C(F)(F)C(O)(c3cncnc3)c3ccc(F)cc3F)nc2)c1 (racemic) [Example 18]	pest or weed control at 50 ppm	80 to 100%
N#Cc1ccc(C#Cc2ccc(C(F)(F)C(O)(c3cncnc3)c3ccc(F)cc3F)nc2)s1 (racemic) [Example 37]	pest or weed control at 50 ppm	60 to 79%
CC(C)(C)C(O)(c1cncnc1)C(F)(F)c1ccc(C#Cc2ccc(F)cc2)cn1 (racemic) [Example 48]	pest or weed control at 50 ppm	< 40%
OC(c1cncnc1)(c1ccc(F)cc1F)C(F)(F)c1ccc(Oc2cccc(Cl)c2)cn1 (racemic) [Example 47]	pest or weed control at 50 ppm	80 to 100%
COc1ccc(Oc2ccc(C(F)(F)C(O)(c3cncnc3)c3ccc(F)cc3F)nc2)cc1 (racemic) [Example 42]	pest or weed control at 50 ppm	80 to 100%
OC(c1cncnc1)(c1ccc(F)cc1F)C(F)(F)c1ccc(C#Cc2ccc(F)cc2)cn1 (racemic) [Example 2]	pest or weed control at 50 ppm	80 to 100%
OC(c1nc[nH]n1)(c1ccc(F)cc1F)C(F)(F)c1ccc(C#Cc2ccc(F)cc2)cn1 (racemic) [Example 27]	pest or weed control at 50 ppm	< 40%
Nc1ccc(C#Cc2ccc(C(F)(F)C(O)(c3ccc(Cl)cc3)c3cncnc3)nc2)cc1 (racemic) [Example 55]	pest or weed control at 50 ppm	< 40%
O=[N+]([O-])c1ccc(C#Cc2ccc(C(F)(F)C(O)(c3cncnc3)c3ccc(F)cc3F)nc2)cc1 (racemic) [Example 16]	pest or weed control at 50 ppm	60 to 79%
OC(c1cncnc1)(C1CC1)C(F)(F)c1ccc(C#Cc2ccc(F)cc2)cn1 (racemic) [Example 70]	pest or weed control at 50 ppm	80 to 100%
OC(c1cncnc1)(c1ccc(F)cc1F)C(F)(F)c1ccc(OCc2ccc(C(F)(F)F)cc2)cn1 (racemic) [Example 65]	pest or weed control at 50 ppm	80 to 100%
